# System: COLO 205
# assay-protocol: NCI tumour cell line growth inhibition, 48 h
Active and inactive are the calls of the source. Cut-off read from the data, not from the text of the source: active = GI50 up to about 1.1 µM and inactive = higher.
Select the matching outcome among class 1 = active, class 0 = inactive

Some solved cases for reference:
INSERT INTO assay_data (compound, label) VALUES
  ('CN(C)C(=O)N(CCCl)N=O', 'class 0'),
  ('CC(CCOc1c2ccoc2cc2oc(=O)ccc12)C1=CC(=O)C(C)(C)O1 (stereo unspecified)', 'class 0'),
  ('Clc1cc(Cl)ncn1', 'class 0'),
  ('CCC1CN2CCc3cc(OC)c(OC)cc3C2CC1CC1c2cc(OC)c(OC)cc2CCN1C(=O)C(Cc1c[nH]c2ccccc12)NC(=O)OC(C)(C)C (stereo unspecified)', 'class 0'),
  ('CC(=O)Nc1c(S(=O)(=O)c2ccccc2)c(C)c(C)n1CCN(C)C', 'class 0');

How was CCN(CC)C(=S)N/N=C1\C(=O)Nc2ccccc21 classified in this test? class 1

How was O=[N+]([O-])C(=C(N1CCOCC1)N1CCOCC1)/C(Cl)=C(\Cl)Br classified in this test? class 0

How was FC(F)(F)C1(Br)C(c2ccccc2)=C1c1ccccc1 classified in this test? class 0

How was CCCCCCCCCCCC[S+](C)C classified in this test? class 0

How was COC1C(=O)CCC2(CO2)C1(O)C1(C)OC1CC=C(C)C (stereo unspecified) classified in this test? class 0

How was O=S(=O)(c1ccccc1)C1(CCC2OCCO2)C=CC2(CC1)OCCO2 (stereo unspecified) classified in this test? class 0
